Target Entity: MST4 (human)
Run Description: radiometric filter-binding kinase assay
Conditions Used: compound 10.0 µM
Recorded Metric: residual activity
A complete answer gives the number followed by the unit.

| Compound | Target Entity | residual activity |
| --- | --- | --- |
| CCc1cncnc1N1CCN(Cc2nc3cc(C(F)(F)F)ccc3[nH]2)CC1 | MST4 (human) | 46% |
| O=c1c(O)c(-c2ccc(O)c(O)c2)oc2cc(O)c(O)c(O)c12 | MST4 (human) | 58% |
| O=C1Nc2nc(-c3c(O)cccc3OCC3CC3)cc(C3CCCNC3)c2CO1 (stereo not drawn) | MST4 (human) | 85% |
| Oc1ccc2ccccc2c1SSc1c(O)ccc2ccccc12 | MST4 (human) | 53% |
| CC(C)(C#N)c1ccc(N2C(=O)OCc3cnc4ccc(-c5cnc6ccccc6c5)cc4c32)cc1 | MST4 (human) | 83% |

Find the measured residual activity: item `CCn1c(-c2nonc2N)nc2cncc(CNC3CCNCC3)c21` , target or system MST4 (human).
91%

// query: `NC(=O)c1cc2c(-c3cccc(-c4ccccc4)c3)cnc(N)c2s1`
35%

// query: `O=S(=O)(c1ccc(F)c2nonc12)N1CCN(c2ncc(C(F)(F)F)cc2Cl)CC1`
104%

// query: `C=CC(=O)N1CCC[C@@H](n2nc(-c3ccc(Oc4ccccc4)cc3)c3c(N)ncnc32)C1`
27%

// query: `O=C(N[C@@H](COc1ccc2[nH]c(=O)[nH]c2c1)c1ccccc1)c1cccn(Cc2ccc(F)c(F)c2)c1=O`
86%

meta.source: the kinase profiling compilation of Christmann-Franck et al. (2016)
